experiment: Fluorescence spectroscopy; type: physicochemical; conditions: CHCl3
Give λem for every item shown.
Supply the numeric figure in nm, leaving out any unit text.

Qu. In one line, give reported λem of the entry COc1cccc2c1CCCC2CCCN1CCN(C2CCN(CCCCCCNc3ccc([N+](=O)[O-])c4nonc34)CC2)CC1 (stereo not shown) .
Ans. 515

Qu. Specify measured λem for O=[N+]([O-])c1ccc(NCCOCCOc2cccc3c2CCCC3CCCN2CCN(C3CCCCC3)CC2)c2nonc12 (stereo not shown) .
Ans. 512

Qu. Please report the measured λem for COc1cccc2c1CCCC2CCCN1CCN(C2CCN(CCCCCCNS(=O)(=O)c3cccc4c(N(C)C)cccc34)CC2)CC1 (stereo not shown)
Ans. 490

Qu. Dear colleague, please send me the reported λem for CN(C)c1cccc2c(S(=O)(=O)NCCCCCCOc3cccc4c3CCCC4CCCN3CCN(C4CCCCC4)CC3)cccc12 (stereo not shown) when you can.
Ans. 490

* * *

Exercise: for every item that follows, state its recorded ε (molar extinction coefficient).
experiment: Molar extinction coefficient; format: physicochemical; conditions: EtOH solutions
Could you give me the number in L/mol/cm? Just the number is fine.

Qu. Could you please provide reported ε (molar extinction coefficient) for O=[N+]([O-])c1ccc(NCCOCCOc2cccc3c2CCCC3CCCN2CCN(C3CCCCC3)CC2)c2nonc12 (stereo not shown) ? Thanks!
Ans. 6544

Qu. Return ε (molar extinction coefficient) for the following compound: COc1cccc2c1CCCC2CCCN1CCN(C2CCN(CCCCCCNc3ccc([N+](=O)[O-])c4nonc34)CC2)CC1 (stereo not shown)
Ans. 14391

Qu. Give reported ε (molar extinction coefficient) value for CN(C)c1cccc2c(S(=O)(=O)NCCCCCCOc3cccc4c3CCCC4CCCN3CCN(C4CCCCC4)CC3)cccc12 (stereo not shown)
Ans. 4000

Qu. Identify the reported ε (molar extinction coefficient) for the following entry. COc1cccc2c1CCCC2CCCN1CCN(C2CCN(CCCCCCNS(=O)(=O)c3cccc4c(N(C)C)cccc34)CC2)CC1 (stereo not shown)
Ans. 2600

* * *

assay: Fluorescence spectroscopy; type: physicochemical; conditions: PBS, free bases
Quantity Kind: λexc (nm)
The reply should contain only the number, in nm.

Qu. For COc1cccc2c1CCCC2CCCN1CCN(C2CCN(CCCCCCNc3ccc([N+](=O)[O-])c4nonc34)CC2)CC1 (stereo not shown) , write its λexc.
Ans. 480

Qu. Please give measured λexc of the following entry: CN(C)c1cccc2c(S(=O)(=O)NCCCCCCOc3cccc4c3CCCC4CCCN3CCN(C4CCCCC4)CC3)cccc12 (stereo not shown)
Ans. 345

Qu. Note λexc for the molecule shown: COc1cccc2c1CCCC2CCCN1CCN(C2CCN(CCCCCCNS(=O)(=O)c3cccc4c(N(C)C)cccc34)CC2)CC1 (stereo not shown)
Ans. 340

Qu. Indicate the recorded λexc value for this molecule: O=[N+]([O-])c1ccc(NCCOCCOc2cccc3c2CCCC3CCCN2CCN(C3CCCCC3)CC2)c2nonc12 (stereo not shown)
Ans. 460

* * *

assay: Fluorescence spectroscopy; assay type: physicochemical; conditions: CHCl3; standard quinine sulfate
Quantity Kind: Φ (quantum yield)

Qu. Please give measured Φ (quantum yield) of the following entry: COc1cccc2c1CCCC2CCCN1CCN(C2CCN(CCCCCCNc3ccc([N+](=O)[O-])c4nonc34)CC2)CC1 (stereo not shown)
Ans. 0.17

Qu. Query Φ (quantum yield) for CN(C)c1cccc2c(S(=O)(=O)NCCCCCCOc3cccc4c3CCCC4CCCN3CCN(C4CCCCC4)CC3)cccc12 (stereo not shown)
Ans. 0.30

Qu. Item COc1cccc2c1CCCC2CCCN1CCN(C2CCN(CCCCCCNS(=O)(=O)c3cccc4c(N(C)C)cccc34)CC2)CC1 (stereo not shown) : provide Φ (quantum yield)
Ans. 0.32

Qu. Look up Φ (quantum yield) of O=[N+]([O-])c1ccc(NCCOCCOc2cccc3c2CCCC3CCCN2CCN(C3CCCCC3)CC2)c2nonc12 (stereo not shown) and report it.
Ans. 0.18
